Below, each of the compounds is paired with its reported melting point value.

Illustrative cases are given below, each with its answer.
{"columns": ["Structure Smiles String", "melting point"],
 "data": [
  ["COc1cc(O)cc(OC)c1/C=C1\\SC(=O)NC1=O", "331 to 333 °C"],
  ["COc1cccc(OC)c1/C=C1\\SC(=O)NC1=O", "241 to 242 °C"],
  ["O=C1NC(=O)/C(=C/C(Cl)=C/c2ccccc2)S1", "251 to 254 °C"]
]}

// recorded melting point for `c1cc(COc2ccc3ccccc3c2)cc(-c2nnn[nH]2)c1` : 200 to 202 °C

Looking up `Cc1cccc(C)c1/C=C1\SC(=O)NC1=O` , I found its melting point recorded as 104 to 105 °C

Item: `O=C1NC(=O)/C(=C/c2c(Cl)cccc2Cl)S1` | melting point: 152 to 154 °C

melting point reported for this compound `O=C1NC(=O)/C(=C/c2c[nH]c3ccc([N+](=O)[O-])cc23)S1` : 330 to 333 °C

Note to self: melting point recorded for `CN(C)c1ccc(/C=C/C=C2\SC(=O)NC2=O)cc1` was 259 to 263 °C
